- TARGET: Cyclin-dependent kinase 9 (Homo sapiens)
- Sequence (P50750 whole entry): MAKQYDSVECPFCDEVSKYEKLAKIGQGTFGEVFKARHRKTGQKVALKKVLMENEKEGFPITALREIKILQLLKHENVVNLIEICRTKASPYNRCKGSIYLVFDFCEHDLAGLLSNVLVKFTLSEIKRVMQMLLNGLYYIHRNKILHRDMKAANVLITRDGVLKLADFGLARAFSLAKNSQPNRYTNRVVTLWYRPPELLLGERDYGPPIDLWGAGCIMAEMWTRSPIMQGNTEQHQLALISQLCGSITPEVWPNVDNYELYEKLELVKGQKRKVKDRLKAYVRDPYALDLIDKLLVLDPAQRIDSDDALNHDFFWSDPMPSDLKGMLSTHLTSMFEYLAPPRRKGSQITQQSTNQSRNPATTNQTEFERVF
MEASURED_PARAMETER: pIC50
Please express pIC50 as -log10 of the molar concentration.

Query string: # get_value(readout= pIC50, system= Cyclin-dependent kinase 9 (Homo sapiens)) for `CC(=O)c1c(C)c2cnc(Nc3ccc(N4CCN(C(=O)CCl)CC4)cn3)nc2n(C2CCCC2)c1=O`
Result string: 5.74

---

- TARGET: Cyclin-dependent kinase 4/cyclin D1 (Homo sapiens) (UniProt P11802+P24385)
- EXPERIMENT_NOTES: Inhibition of CDK4/Cyclin D1 (unknown origin) at 20 nM using ATP by mobility shift assay
- Assay type: protein-complex assay
YES means recorded inhibition is 60% or above; NO means it is below 60%.

Completed entries (count: 4):
{"columns": ["COMPOUND", "LABEL_CLASS"],
 "data": [
  ["CC(=O)c1c(C)c2cnc(Nc3ccc(N4CCN(CCC(=O)NCCCNC(=O)CCl)CC4)cn3)nc2n(C2CCCC2)c1=O", "YES"],
  ["CC(=O)c1c(C)c2cnc(Nc3ccc(N4CCN(CCC(=O)NCCCCNC(=O)CCl)CC4)cn3)nc2n(C2CCCC2)c1=O", "NO"],
  ["CC(=O)c1c(C)c2cnc(Nc3ccc(N4CCNCC4)cn3)nc2n(C2CCCC2)c1=O [PALBOCICLIB]", "YES"],
  ["CC(=O)c1c(C)c2cnc(Nc3ccc(N4CCN(C(C)=O)CC4)cn3)nc2n(C2CCCC2)c1=O", "NO"]
]}

Query compound follows.
Query string: For this compound, is measured inhibition 60% or higher? `CC(=O)c1c(C)c2cnc(Nc3ccc(N4CCN(CC(=O)NCCCCCCNC(=O)CCl)CC4)cn3)nc2n(C2CCCC2)c1=O`
Result string: NO
